Where do these numbers come from? They come from patent US20250297004A1.

Exercise: state measured koff for each of the binders provided.
# test.target: human Nectin-4 (protein used in the SPR affinity measurements) (human) (UniProt Q96NY8)
# Sequence (Q96NY8 32-349 limits assumed): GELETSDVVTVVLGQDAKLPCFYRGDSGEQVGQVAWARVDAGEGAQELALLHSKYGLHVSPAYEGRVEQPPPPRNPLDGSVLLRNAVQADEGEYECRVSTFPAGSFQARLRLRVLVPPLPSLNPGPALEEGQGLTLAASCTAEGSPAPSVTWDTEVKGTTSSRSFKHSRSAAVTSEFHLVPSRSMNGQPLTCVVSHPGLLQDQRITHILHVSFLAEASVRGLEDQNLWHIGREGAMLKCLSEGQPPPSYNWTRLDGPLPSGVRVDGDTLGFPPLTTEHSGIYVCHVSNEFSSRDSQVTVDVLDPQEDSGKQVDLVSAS
# protocol.description: SPR, human IgG1
Numbers only, in s⁻¹.

Recorded koff, per entry:
binder: H6L1 (antibody, human IgG1, V domains shown, human IgG1 isotype) VH: QVQLVQSGAEVKKPGASVKVSCKASGYIFTSYWMHWVKQRPGQGLEWIGEIDPSDSYTNYNQKFKGRVTMTLDKSTSTTYMELSSLRSEDTAVYYCARGYGNYGDYWGQGTLVTVSS VL: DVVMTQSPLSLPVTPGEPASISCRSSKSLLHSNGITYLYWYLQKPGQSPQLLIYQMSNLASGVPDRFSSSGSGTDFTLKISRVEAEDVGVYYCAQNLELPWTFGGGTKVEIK
unit.tag: s⁻¹
readout.number: 0.0062

binder: H8L1 (antibody, human IgG1, V domains shown, human IgG1 isotype) VH: QVQLVQSGAEVKKPGASVKVSCKASGYIFTSYWMHWVKQAPGQGLEWIGEIDPSDSYTNYNQKFKGRVTMTLDKSTSTTYMELSSLRSEDTAVYYCARGYGNYGDYWGQGTLVTVSS VL: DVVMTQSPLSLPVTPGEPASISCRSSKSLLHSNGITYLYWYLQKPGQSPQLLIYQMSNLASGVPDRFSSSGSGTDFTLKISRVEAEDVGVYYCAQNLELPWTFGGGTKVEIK
unit.tag: s⁻¹
readout.number: 0.0048

Now, please, on to the next binder.
Qu. Give its koff value. Item: H4L3 (antibody, human IgG1, V domains shown, human IgG1 isotype) VH: QVQLVQSGAEVKKPGASVKVSCKASGYIFTSYWMHWVKQAPGQGLEWMGEIDPSDSYTNYNQKFKGRVTMTLDKSTSTTYMELSSLRSEDTAVYYCARGYGNYGDYWGQGTLVTVSS VL: DVVMTQSALSNPVTPGEPASISCRSSKSLLHSNGITYLYWYLQKPGQSPQLLIYQMSNLASGVPDRFSSSGSGTDFTLKISRVEAEDVGVYYCAQNLELPWTFGGGTKVEIK
Ans. 0.0052
